target: Melanocortin receptor 4 (Homo sapiens) (UniProt P32245); assay: activators of MC4R beta-arrestin recruitment – cell-based, luminescence, agonist arm of biased-ligand search, primary screen (AID 540308); details: U2OS MC4R beta-arrestin complementation, at 8.9 µM, stronger effect = higher value, percent of melanotan II response, DMSO zero
Sequence (P32245 whole entry, looked up): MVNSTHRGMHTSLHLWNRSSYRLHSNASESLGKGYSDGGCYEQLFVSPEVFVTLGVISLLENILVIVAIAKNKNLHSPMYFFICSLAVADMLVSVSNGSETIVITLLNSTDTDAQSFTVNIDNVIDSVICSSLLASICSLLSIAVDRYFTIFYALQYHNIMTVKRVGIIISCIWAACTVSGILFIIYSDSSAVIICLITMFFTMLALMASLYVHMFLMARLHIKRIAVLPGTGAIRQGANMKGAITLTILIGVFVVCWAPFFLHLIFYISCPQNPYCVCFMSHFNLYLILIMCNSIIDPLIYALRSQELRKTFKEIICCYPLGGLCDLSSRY
The campaign covered roughly 360,000 compounds. About 3,500 (0.97%) were called active. The full list was thinned out, with actives kept by preference.
What activation was measured for each of the following?
Write the answer as a number in %, unit excluded.

I have this compound here, `COc1ccc(-c2coc3c(C(=O)NC(C)C)cccc23)c(C)c1` , and I need its recorded activation.
0.44

What would you report for `CCCCC(=O)N(C)c1c(CC)nc2c(OCc3ccc(S(C)(=O)=O)cc3)cccn12` ?
0.14

What would you report for `COC(=O)c1sccc1NC(=O)c1ccc(Cl)cc1` ?
3.1

What would you report for COc1cccc(C(NC(C)=O)c2nc(-c3cnc4ccccc4c3)cs2)c1 (stereo not given) ?
-2.35

What would you report for `CCCOc1ccc(/C=N/NC(=O)C2CC2)c(OCCC)c1` ?
0.66

* * *

biological target: Melanocortin receptor 4 (Homo sapiens); experiment: activators of MC4R beta-arrestin recruitment – cell-based, luminescence, agonist arm of biased-ligand search, primary screen (AID 540308); details: U2OS MC4R beta-arrestin complementation, at 8.9 µM, stronger effect = higher value, percent of melanotan II response, DMSO zero
Screen size: about 360,000 compounds; about 3,500 (0.97%) were called active. Shown is part of a subset that was picked to be rich in actives.
What activation was measured for each of the following?

I have this molecule here, `Cc1ccc(-n2nc3cc(C)c(NC(=O)c4cccnc4)cc3n2)cc1` , and I need its recorded activation.
2.16% (inactive)

What would you report for `O=C(Nc1ccc2oc(-c3ccc4ccccc4c3)nc2c1)c1cccs1` ?
14.3% (active)

What would you report for CCOC(=O)C1(C)CCCN(C(=O)c2cccc(Cl)c2)C1 (stereo not given) ?
0.39% (inactive)

What would you report for `Cc1cccc(NC(=O)CN2CCN(CC(=O)NCC3(N4CCCCC4)CCCCC3)CC2)c1C` ?
-0.84% (inactive)

What would you report for `Cc1ccc(NC(=O)c2ccco2)cc1` ?
-2.18% (inactive)

* * *

target: Melanocortin receptor 4 (Homo sapiens) (UniProt P32245); test: activators of MC4R beta-arrestin recruitment – cell-based, luminescence, agonist arm of biased-ligand search, primary screen (AID 540308); details: U2OS MC4R beta-arrestin complementation, at 8.9 µM, stronger effect = higher value, percent of melanotan II response, DMSO zero
Hit rate of the full screen: of about 360,000 compounds, about 3,500 (0.97%) were called active. Many of the other results were omitted from the sample, so actives are more common in it than they were.
readout: activation

I have this molecule here, `Cn1cccc1C(=O)NNC(=O)COc1ccc(Br)cc1` , and I need its recorded activation.
-1.12% (inactive)

What would you report for `COc1cccc(CNc2nc(NCc3cccs3)nc3ccsc23)c1` ?
-1.2% (inactive)

What would you report for CC1(C(=O)Nc2cccc(Oc3ccccc3)c2)CCN1Cc1ccccc1Cl (centres undefined) ?
-1.51% (inactive)

What would you report for `O=C(COc1ccc(S(=O)(=O)N2CCCC2)cc1[N+](=O)[O-])N1CCCCC1` ?
-1.25% (inactive)

* * *

target: Melanocortin receptor 4 (Homo sapiens); test: activators of MC4R beta-arrestin recruitment – cell-based, luminescence, agonist arm of biased-ligand search, primary screen (AID 540308); details: U2OS MC4R beta-arrestin complementation, at 8.9 µM, percent of melanotan II response, DMSO zero
In all, about 360,000 compounds went through this assay and about 3,500 (0.97%) were called active.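 Rule for the calls: active = activation above a per-plate cutoff, the mean activation of sample wells on that plate plus 3 SD (cut at about 8% in these data); inactive = the rest.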 The list comes from a sample in which actives are over-represented; it also holds close analogues and randomly drawn compounds.
Choose the fitting class; nothing outside label 1 = active, label 0 = inactive is accepted.

Recorded test outcome, item `COc1cccc(CNCCc2c[nH]c3ccccc23)c1OCc1ccccc1F`
label 1

What would you report for CCOC(=O)C1(C)CCCN(C(=O)c2ccc(N(C)C)cc2)C1 (stereo not given) ?
label 0

What would you report for `O=C(NCc1cccc(C(F)(F)F)c1)c1ccc2sc(COCCO)nc2c1` ?
label 0

What would you report for CC(=O)NC(c1ccccc1)c1nc(-c2cccc(C(C)C)c2)cs1 (stereo not given) ?
label 0

What would you report for `COc1ccccc1Cn1c(CO)nc2ccccc21` ?
label 0

What would you report for `Cc1ccccc1CN1CCC(C(=O)Nc2ccc(Oc3cccnc3)cc2)CC1` ?
label 0

What would you report for `COc1ccc(-n2cc(-c3ccccc3)c3c(=S)nc[nH]c32)cc1` ?
label 0

What would you report for `Cc1ccc(C(=O)Nc2ccc(NC(=O)c3cccs3)cc2)c(C)c1` ?
label 1

What would you report for `CCN(c1ccccc1)S(=O)(=O)c1ccc(C(=O)Nc2nccs2)cc1` ?
label 1

What would you report for `CCN(c1ccccc1)S(=O)(=O)c1ccc(NC(=O)C(C)(C)C)cc1` ?
label 0

* * *

target: Melanocortin receptor 4 (Homo sapiens) (UniProt P32245); experiment: activators of MC4R beta-arrestin recruitment – cell-based, luminescence, agonist arm of biased-ligand search, primary screen (AID 540308); details: U2OS MC4R beta-arrestin complementation, at 8.9 µM, stronger effect = higher value, percent of melanotan II response, DMSO zero
Screen size: about 360,000 compounds; about 3,500 (0.97%) were called active. Only a selection was taken, and actives are over-represented in it overall.
What activation was measured for each of the following?

I have this molecule here, CC(=O)Nc1cccc(-c2ccnc3c2CC(C)(C(=O)NCc2ccccc2)O3)c1 (centres undefined) , and I need its recorded activation.
-1.6% (inactive)

What would you report for `CCCCN1CC(C)(C)[C@H](CC(=O)Nc2ccc(Br)cc2)C1=O` ?
14.2% (active)

What would you report for CC1(C(=O)NS(=O)(=O)c2ccccc2)CCN1C(=O)Cc1ccc(-c2ccccc2)cc1 (centres undefined) ?
-1.08% (inactive)

What would you report for `COc1cc(/C=C2\Oc3ccc(C#Cc4ccc(O)cc4)cc3C2=O)cc(OC)c1` ?
10.2% (active)

* * *

What activation was measured for each of the following?
target: Melanocortin receptor 4 (Homo sapiens) (UniProt P32245); experiment: activators of MC4R beta-arrestin recruitment – cell-based, luminescence, agonist arm of biased-ligand search, primary screen (AID 540308); conditions: U2OS MC4R beta-arrestin complementation, at 8.9 µM, stronger effect = higher value, percent of melanotan II response, DMSO zero
Out of some 360,000 compounds screened, about 3,500 (0.97%) were called active. Many of the other results were omitted from the sample, so actives are more common in it than they were.
Write the answer as a number in %, unit excluded.

I have this molecule here, `COc1ccc(-n2nnnc2SCC(=O)NCc2cccs2)cc1` , and I need its recorded activation.
-3.21

What would you report for `COc1ccccc1CNC(=O)c1cc(-c2cc(Cl)ccc2C)n[nH]1` ?
-0.81

What would you report for CCNC(=O)C1(C)CCCN1C(=O)c1ccc(N(C)C)cc1 (configuration not stated) ?
-0.82

What would you report for `CCc1nc2c(OCc3ccc(F)c(F)c3)cccn2c1N(C)C(=O)c1ccco1` ?
1.17

What would you report for `COc1ccc(C(=O)OCC(=O)N2CC(=O)Nc3ccccc32)cc1Br` ?
0.65

What would you report for `CCOc1ccc(Cl)cc1-c1cc(C(=O)NCc2cccs2)[nH]n1` ?
1.31

What would you report for `CCc1ccc(CNC(=O)C2CCN(c3nnc(C)c4c(C)n(-c5ccc(C)cc5)nc34)CC2)cc1` ?
26.2

What would you report for `COc1cc2ccccc2cc1C(=O)Nc1ccncc1` ?
-0.89

What would you report for CCCC(=O)N1CCC1(C)C(=O)NCc1ccc(C(C)C)cc1 (configuration not stated) ?
1.64

What would you report for `Oc1cccc2cc(-c3ccncc3)cnc12` ?
-1.87

What would you report for `O=C(NCc1ccco1)c1cccc(-c2ccc3nncn3c2)c1` ?
1.37

What would you report for `Cc1c(C#N)c(NC(=O)c2ccccc2)n(Cc2ccccc2)c1C` ?
1.54

What would you report for `O=C(Nc1ccc(S(=O)(=O)Nc2nccs2)cc1)c1cc(-c2ccncc2)nc2ccccc12` ?
1.73

What would you report for `COc1ccc(NC(=O)/C(C#N)=C\c2cc(OC)c(OCc3ccc(C(=O)O)cc3)cc2Br)cc1` ?
-1.04

What would you report for `COc1ccc(-n2nnnc2-c2nc3ccccc3s2)cc1` ?
9.47

What would you report for COc1ccc(S(=O)(=O)NC(=O)C2(C)CCN2C(=O)COc2ccc(Cl)cc2)cc1 (configuration not stated) ?
-1.47

What would you report for `COc1ccc(Cn2c(C)c(C)c(C#N)c2NC(=O)Nc2ccc(F)cc2)cc1` ?
9.65

What would you report for `O=C(Nc1cccn(Cc2ccccc2Cl)c1=O)NC1CCCCC1` ?
-3.02

What would you report for `COc1cc(/C=C(\C#N)C(=O)Nc2ccc3ccccc3c2)c([N+](=O)[O-])cc1OC` ?
20.1

What would you report for `Cc1ccc2nc(-c3ccccn3)cc(C(=O)Nc3ccc4c(c3)OCO4)c2c1` ?
8.55

What would you report for `Cc1cc(NS(=O)(=O)c2ccc(NC(=O)c3cccc(OC(F)F)c3)cc2)nc(C)n1` ?
0.09

What would you report for `CCN(CCN(C)C)C(=O)c1ccc2nc(C)c(N(C)C(=O)CCc3ccccc3)n2c1` ?
0.87
